Each recorded value in this set is attributed to patent US9459250B2.

# TEST TARGET: T1R1/T1R3 (Homo sapiens (Human), UniProt Q7RTX0+Q7RTX1)
# Sequence (Q7RTX1 21-841): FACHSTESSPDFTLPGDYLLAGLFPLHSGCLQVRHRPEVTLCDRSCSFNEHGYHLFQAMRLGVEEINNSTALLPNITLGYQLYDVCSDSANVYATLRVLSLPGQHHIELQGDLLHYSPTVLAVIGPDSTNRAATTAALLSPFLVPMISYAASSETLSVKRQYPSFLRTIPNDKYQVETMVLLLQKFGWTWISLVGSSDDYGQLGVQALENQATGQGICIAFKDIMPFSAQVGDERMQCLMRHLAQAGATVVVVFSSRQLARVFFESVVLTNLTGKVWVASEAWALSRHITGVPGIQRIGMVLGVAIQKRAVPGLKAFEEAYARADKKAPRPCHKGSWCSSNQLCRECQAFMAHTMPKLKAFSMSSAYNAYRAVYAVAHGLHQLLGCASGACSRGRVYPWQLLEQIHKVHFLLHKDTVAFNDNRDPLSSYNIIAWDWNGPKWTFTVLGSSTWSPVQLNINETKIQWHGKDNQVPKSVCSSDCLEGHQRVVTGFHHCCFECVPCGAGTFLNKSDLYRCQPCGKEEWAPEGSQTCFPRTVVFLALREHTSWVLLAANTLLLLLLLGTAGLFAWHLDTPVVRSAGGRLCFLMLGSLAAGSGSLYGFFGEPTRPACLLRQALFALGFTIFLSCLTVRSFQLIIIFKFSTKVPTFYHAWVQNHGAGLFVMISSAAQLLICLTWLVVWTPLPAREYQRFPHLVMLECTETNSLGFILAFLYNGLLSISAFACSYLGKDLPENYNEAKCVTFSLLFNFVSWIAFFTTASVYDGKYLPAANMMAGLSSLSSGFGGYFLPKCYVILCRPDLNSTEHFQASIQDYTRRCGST
# Sequence (Q7RTX0 21-852 C757R): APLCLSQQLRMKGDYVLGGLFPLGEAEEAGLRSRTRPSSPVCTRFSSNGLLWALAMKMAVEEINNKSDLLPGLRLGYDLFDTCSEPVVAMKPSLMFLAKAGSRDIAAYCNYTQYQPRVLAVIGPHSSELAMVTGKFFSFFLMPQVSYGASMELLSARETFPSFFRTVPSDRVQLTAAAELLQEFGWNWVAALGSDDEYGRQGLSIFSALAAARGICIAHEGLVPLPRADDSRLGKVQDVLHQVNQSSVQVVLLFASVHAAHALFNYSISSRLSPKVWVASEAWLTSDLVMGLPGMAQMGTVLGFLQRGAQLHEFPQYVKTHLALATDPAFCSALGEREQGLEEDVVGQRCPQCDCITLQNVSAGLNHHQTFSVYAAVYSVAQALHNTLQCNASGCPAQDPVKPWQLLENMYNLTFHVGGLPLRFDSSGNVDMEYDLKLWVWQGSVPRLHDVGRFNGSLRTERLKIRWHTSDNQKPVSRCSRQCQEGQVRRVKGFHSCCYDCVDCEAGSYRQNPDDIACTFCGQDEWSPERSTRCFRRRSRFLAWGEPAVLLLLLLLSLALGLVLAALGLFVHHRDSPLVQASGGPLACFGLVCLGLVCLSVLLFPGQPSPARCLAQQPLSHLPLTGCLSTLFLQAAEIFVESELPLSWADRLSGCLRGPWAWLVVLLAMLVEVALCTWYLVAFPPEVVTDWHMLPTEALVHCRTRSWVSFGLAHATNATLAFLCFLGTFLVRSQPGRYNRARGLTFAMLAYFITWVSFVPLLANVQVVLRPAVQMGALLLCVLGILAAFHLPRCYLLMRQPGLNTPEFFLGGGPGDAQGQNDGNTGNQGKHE
# TEST PROTOCOL: Umami enhancement assay: MSG dose response with and without compound
# Assay type: cell-based
# REPORTED CONDITIONS: Table 1; compound @ 1 uM
MEASURE: Ec50 ratio (vs. MSG)

Recorded Ec50 ratio (vs. MSG), per entry:
INSERT INTO assay_data (compound, measure, assay_result) VALUES
  ('COc1cccc(C(=O)N[C@H]2CCCc3ccccc32)c1O', 'Ec50 ratio (vs. MSG)', 5.7),
  ('COc1ccc([C@@H](C)NC(=O)c2ccc(OC)c(Cl)c2)cc1', 'Ec50 ratio (vs. MSG)', 2.85);

I: CCCC(CCC)NC(=O)c1ccc(C)s1
II: CCCC(NC(=O)c1ccc2c(c1)OCO2)C(=O)OC (centres unmarked)
III: CCC(CC)NC(=O)c1cc2cc(OC)ccc2o1
Ascending by Ec50 ratio (vs. MSG), please. Please list the labels according to the requested order.
III, I, II
(III: 4.46, I: 6.54, II: 9.53)

---

# TEST TARGET: T1R1/T1R3 (Homo sapiens (Human), UniProt Q7RTX0+Q7RTX1)
# TEST PROTOCOL: Umami enhancement assay: MSG dose response with and without compound
# Type: cell-based
# REPORTED CONDITIONS: Table 1; compound @ 1 uM
MEASURE: Ec50 ratio (vs. MSG)

Recorded Ec50 ratio (vs. MSG), per entry:
INSERT INTO measurements (compound, measure, assay_result) VALUES
  ('CCCC(CCC)NC(=O)c1ccc(Br)o1', 'Ec50 ratio (vs. MSG)', 12.6),
  ('CCCC(CCC)NC(=O)c1cc(C)c(C)o1', 'Ec50 ratio (vs. MSG)', 10.04);

P: COc1cccc(C(=O)NC2CCCc3ccccc32)c1O (stereo not shown)
Q: CC(CCc1ccccc1)NC(=O)c1ccc2c(c1)OCO2 (stereo not shown)
Thinking about recorded Ec50 ratio (vs. MSG) values, which is higher, P or Q ? Please reply using the label of the selected record.
Q

---

# TEST TARGET: T1R1/T1R3 (Homo sapiens (Human), UniProt Q7RTX0+Q7RTX1)
# TEST PROTOCOL: Umami enhancement assay: MSG dose response with and without compound
# Assay type: cell-based
# REPORTED CONDITIONS: Table 3; Con. 1 uM
MEASURE: Ec50 ratio (vs. MSG)

INSERT INTO assay_data (compound, test_target, measure, assay_result) VALUES
  ('CCCC(CCC)NC(=O)Nc1ccccc1Cl', 'T1R1/T1R3 (Homo sapiens (Human), UniProt Q7RTX0+Q7RTX1)', 'Ec50 ratio (vs. MSG)', 4.95),
  ('O=C(Nc1ccccc1Cl)NC1CCCc2ccccc21 (stereo not drawn)', 'T1R1/T1R3 (Homo sapiens (Human), UniProt Q7RTX0+Q7RTX1)', 'Ec50 ratio (vs. MSG)', 3.68);

P: CCC(NC(=O)Nc1ccc(Cl)cc1Cl)c1ccccc1 (stereo not drawn)
Q: CCC(CC)NC(=O)Nc1ccc(OC)cc1OC
Between item P and item Q , which reported Ec50 ratio (vs. MSG) is smaller? Please reply using the label of the selected record.
P
(P: 4.52, Q: 11.87)

a: CC(NC(=O)Nc1ccccc1Cl)C1CCCCC1 (stereo not drawn)
b: O=C(Nc1ccccc1F)NC1CCCc2ccccc21 (stereo not drawn)
Thinking about recorded Ec50 ratio (vs. MSG) values, which is higher, a or b ? Please reply using the label of the selected record.
a
(a: 9.08, b: 4.49)
